target: glycine strychnine-insensitive site of the NMDA receptor complex (Homo sapiens); test: affinity at the glycine strychnine-insensitive site of the NMDA receptor complex
READOUT LABEL: pIC50
In textbook form, pIC50 equals minus log to base ten of the concentration in mol/L.

Ask: Identify measured pIC50 associated with COC[C@@H](NC(C)=O)C(=O)NCc1ccccc1
Reply: 5.28
